These measurements were taken from PubChem BioAssay AID372.

For each record, write down the corresponding inhibition.
target: Gag-Pol polyprotein (Human immunodeficiency virus type 1 group M subtype B (isolate HXB2)) (UniProt P04585); assay: RNase H inhibition, HIV 1 Gag Pol polyprotein, FRET biochemical assay, screening (AID 372); conditions: HIV-1 RT RNase H, FRET RNA/DNA substrate fluorescence; at 10 µM; active compounds read high
About 770 (0.77%) of roughly 100,000 compounds were called active. What follows is part of a selection rich in actives, with near analogues and random picks from the rest.
Give bare numbers, in %.

Worked examples follow.
CS(=O)(=O)N(CC(=O)NCCSCc1ccccc1Cl)c1ccc(Br)cc1 ... 50
COc1ccc(N(CC(=O)NCCSCc2ccccc2Cl)S(C)(=O)=O)cc1 ... 22
C=CCc1ccc(OCCOc2cccc(/C=C3\SC(=S)N(CC)C3=O)c2)c(OC)c1 ... 26
COc1ccc(CCNC(=O)C(=O)Nc2ccccc2)cc1 ... 11
O=C1NC(=S)N/C1=C/c1ccc(-c2cc([N+](=O)[O-])ccc2Cl)o1 ... 50

# map each molecule to its inhibition
1. COc1cccc(N2C(=O)NC(=O)/C(=C/c3ccc(OC)c4ccccc34)C2=O)c1
2. Cc1cc(Br)c(-c2ccc(/C=C3/NC(=S)NC3=O)o2)cc1C
3. O=C1NC(=S)N/C1=C\c1ccc(-c2cccc([N+](=O)[O-])c2)o1
4. Cc1nc(-c2ccccc2)sc1C(=O)Nc1ccc(-c2cn3ccccc3n2)cc1
5. O=C1NC(=S)N/C1=C/c1ccc(-c2ccc([N+](=O)[O-])cc2Cl)o1

OUT:
1. 31
2. 24
3. 14
4. 6
5. 5
